Data provenance: the RNAGym collection of RNA variant scans (doi:10.1126/science.aae0568)

B1: tRNA (parent)
chain: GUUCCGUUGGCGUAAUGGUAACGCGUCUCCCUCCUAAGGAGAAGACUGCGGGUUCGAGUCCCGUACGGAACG

variants of: B1; test: yeast fitness relative to wild type (ratio to wild type); higher = fitter; tRNA-Arg(CCU), competitive growth, 37 C, YPD
This sample holds only a part of the variants without activity.
Reported yeast fitness values for a set of variants
Just the number.

U13A A40G U47G G63C	0.535
U59C A69U	1.02
C33G G38C G41C A43C U47G G67C	0.582
A20G A43U G48A	0.73
C4U G12A U28A A42C	0.515

## Task Looking for the measured yeast fitness of C5U A21U C33U G50A , can you help?
## Result 0.65

## Task And the next one, U3A A40C C62U ?
## Result 0.548

## Task Queued: C24U G67U
## Result 0.869

## Task Try A42U C61U A70C next.
## Result 0.709

## Task And then G12A A37U A42C , what is it?
## Result 0.559
